Tested on: MDA-MB-435 melanoma
experimental_protocol: NCI-60 one-dose screen, 48 h
condition_label: 10 µM unless noted
Compounds without any hit were thinned out: in the full panel of roughly 83,000, 20% have a hit. Active and inactive are the calls of the source. The calls were made as follows: active = growth percent below 10; inactive = the rest.
Please answer using one outcome listed in true for active, false for inactive

>>> classification("O=C1Nc2ccc(F)cc2/C1=C\\c1nc(-c2ccccc2F)n2ccccc12")
"false"
>>> classification("COc1ccc(C2=Nc3c(N)ncnc3NC(c3cccc(Nc4ccnc5cc(C(F)(F)F)ccc45)c3)C2)cc1 (stereo not given)")
"false"
>>> classification("c1ccc(CCc2ccccc2-c2cc(-c3ccccc3)on2)cc1")
"false"

Test call for this compound, please: CCN1C(=O)N(CC)C2C1NN=c1s/c(=C3\C(=O)N(CCc4ccccc4)c4ccccc43)c(=O)n12 (stereo not given)
true

Test call for this compound, please: CC(=O)c1c(Nc2ccc(F)c(F)c2F)[nH]c2c(F)cc(F)cc2c1=O
true

Test call for this compound, please: CCOC(=O)N1CCN(S(=O)(=O)c2oc(-c3ccc(Cl)cc3)nc2C#N)CC1
false

Test call for this compound, please: OC(c1ccccc1)(c1ccccc1)c1ccccc1-c1ccccc1
false

Test call for this compound, please: COc1ccc(/C(C)=C(\c2ccc(Cl)cc2)c2ccc(OCCN3CCCC3)cc2)cc1
false

* * *

System: OVCAR-8 ovarian
experimental_protocol: NCI-60 one-dose screen, 48 h
condition_label: 10 µM unless noted
About 83,000 compounds went through this panel and 20% of them were active in at least one assay; those are over-represented in the sample as a whole. Activity calls are given as the source filed them. How the source made its calls: active means growth percent below 10; inactive means the rest.
Please answer using one outcome listed in active, inactive

>>> classification("O=C(Nc1ccc(F)cc1)Nc1ccccc1CNc1nc(Nc2ccc(OCCN3CCCC3)cc2)ncc1Cl")
"inactive"
>>> classification("CC(C)c1ccc(C(=O)Nc2sc3cc(O)ccc3c2C#N)cc1")
"inactive"
>>> classification("N=c1c2c(=N)n3c(nc2nc2n1-c1ccccc1Sc1ccccc1-2)sc1cc(Cl)ccc13")
"inactive"
>>> classification("O=[N+]([O-])/C(=C\\c1ccco1)c1ccccc1Cl")
"inactive"
>>> classification("CS(=O)(=O)Nc1cncc(-c2ccc3ncnc(Nc4ccc(F)c(Cl)c4)c3c2)c1")
"inactive"
>>> classification("CC(=O)c1c(Nc2ccc(F)c(F)c2F)[nH]c2c(F)cc(F)cc2c1=O")
"active"
>>> classification("Cc1ccccc1OCC(O)COc1ccccc1C")
"inactive"
>>> classification("Cn1cc(-c2csc(-c3cn(C(=O)OC(C)(C)C)c4ccccc34)n2)c2ccnc(Cl)c21")
"inactive"
>>> classification("Nc1ncnc2c1c(-c1ccc(Oc3ccccc3)cc1)nn2CC1SSCC1O (stereo not given)")
"inactive"
>>> classification("COc1ccc(C2C(C#N)=C(N)Oc3c2sc2c(Br)cccc32)cc1 (stereo not given)")
"inactive"

Test call for this compound, please: CCn1cc(C(=O)N/N=C/c2ccc(Br)cc2)c(=O)c2cc(F)c(N3CCNC(C)C3)c(F)c21 (stereo not given)
inactive

Test call for this compound, please: COc1ccc(Nc2ncccc2NC(=O)c2cn(Cc3cccc(Oc4ccccc4)c3)nn2)cc1OC
inactive

Test call for this compound, please: Cc1ccc2[nH]c(=O)c3c(c2c1)OC(N)=C(C#N)C31C(=O)c2cccc3cccc1c23 (stereo not given)
inactive

Test call for this compound, please: Cc1nc2ccccc2c(/C=C/c2ccc(C(F)(F)F)cc2)c1C(=O)/C=C/c1ccccc1
active

Test call for this compound, please: COc1ccc2nc3ccccc3c(NCc3ccccc3)c2c1
inactive

Test call for this compound, please: CC[C@@H](c1ccc2cc(OC)ccc2c1)C(C)(C)C(=O)F
inactive

Test call for this compound, please: COc1cc(C2=NN(C(C)=O)C(c3ccc(N(C)C)cc3)C2)cc(OC)c1OC (stereo not given)
inactive

Test call for this compound, please: Cn1c(=O)c2c(c3ccccc31)OC(N)=C(C#N)C21C(=O)c2ccccc2C1=O
inactive

Test call for this compound, please: O=C(CSc1nc2ccc([N+](=O)[O-])cc2[nH]1)Nc1ccc(Br)cc1
inactive

Test call for this compound, please: C=CCn1c(SCC(=O)Nc2ccc(C(=O)/C=C/c3ccc(OC)cc3)cc2)nnc1-c1ccccc1
inactive

Test call for this compound, please: CC1COCC(C)N1C1=C(Cl)C(=O)c2ccccc2C1=O (stereo not given)
inactive

Test call for this compound, please: Cc1ccc(-c2cc(C(=O)N3N=C(c4ccc(N)cc4)CC3c3ccc(Cl)cc3)c3ccccc3n2)cc1 (stereo not given)
inactive

Data origin: PubChem BioAssay (NCI)
